Assay: Ratio of compound IC50 to amphotericin B IC50 for mouse J774.1 cells
Format: ADME
Conditions: read-out: Ratio IC50
selectivity ratio listing for selected compounds.

{"structure": "O=C(N/N=C/c1ccc2no[n+]([O-])c2c1)c1ccc2c(c1)OCO2", "selectivity ratio": 28.5}
{"structure": "COc1cc(/C=N/NC(=O)c2no[n+]([O-])c2C)ccc1O", "selectivity ratio": 50}
{"structure": "O=C(N/N=C/c1ccc2no[n+]([O-])c2c1)c1cnn(-c2ccccc2)c1", "selectivity ratio": 5}

---

selectivity ratio listing for selected compounds.
Test: Selectivity index, ratio of IC50 for african green monkey Vero cells to IC50 for amastigote stage of Trypanosoma cruzi Tulahuen C4
Format: toxicity, cell-based
Conditions: read-out: Ratio IC50

{"compound": "O=C(N/N=C/c1c(-c2ccccc2)no[n+]1[O-])c1ccncc1", "selectivity ratio": 2.5}
{"compound": "CC1CS(=O)(=O)CCN1/N=C/c1ccc([N+](=O)[O-])o1 (centres undefined)", "selectivity ratio": 7.7}
{"compound": "Cc1nc2ccccn2c1C(=O)N/N=C/c1c(-c2ccccc2)no[n+]1[O-]", "selectivity ratio": 12}
{"compound": "O=C(N/N=C/c1ccc2no[n+]([O-])c2c1)c1ccncc1", "selectivity ratio": 2.5}
